Assay Target: human CD33 on primary human monocyte-derived dendritic cells (human, UniProt P20138 18-364)
Sequence (P20138 18-364): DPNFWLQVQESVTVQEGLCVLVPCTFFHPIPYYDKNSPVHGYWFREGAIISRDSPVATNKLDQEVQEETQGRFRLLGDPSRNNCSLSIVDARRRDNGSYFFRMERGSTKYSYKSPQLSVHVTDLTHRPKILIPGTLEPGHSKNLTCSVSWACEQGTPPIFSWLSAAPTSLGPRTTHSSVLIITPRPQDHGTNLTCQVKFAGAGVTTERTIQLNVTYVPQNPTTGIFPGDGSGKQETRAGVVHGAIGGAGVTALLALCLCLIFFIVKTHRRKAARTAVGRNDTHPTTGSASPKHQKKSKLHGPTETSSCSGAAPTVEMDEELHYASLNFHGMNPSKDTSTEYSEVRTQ
Test Details: cell-based or functional assay
Task for the reader: assign each of the following binders its reported Receptor downregulation (EC50).
Numbers only, in nM.

Solved cases below.
{"Binder": "AB-63.9 (antibody, V domains shown) VH: QVQLVQSGAEVKKPGASVKVSCKASGYAFTDYNLHWVRQAPGQGLEWIGFIYPSNGITGYAQKFQGRVTMTVDTSTSTVYMELSSLRSEDTAVYYCARSDVDYFDYWGQGTLVTVSS VL: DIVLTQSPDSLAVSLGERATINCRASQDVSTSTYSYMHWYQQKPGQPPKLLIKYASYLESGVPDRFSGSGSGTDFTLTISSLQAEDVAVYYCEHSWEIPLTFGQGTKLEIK", "Unit Of Measure": "nM", "Receptor downregulation (EC50)": 0.0407}
{"Binder": "AB-63.17 (antibody, V domains shown) VH: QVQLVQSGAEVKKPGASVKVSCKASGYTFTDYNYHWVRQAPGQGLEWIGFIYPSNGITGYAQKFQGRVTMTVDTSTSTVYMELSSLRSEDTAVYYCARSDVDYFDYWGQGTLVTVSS VL: DIVLTQSPDSLAVSLGERATINCRGSQSVSTSTYSYMHWYQQKPGQPPKLLIKYESNLESGVPDRFSGSGSGTDFTLTISSLQAEDVAVYYCQHSWEIPLTFGQGTKLEIK", "Unit Of Measure": "nM", "Receptor downregulation (EC50)": 0.0522}

Okay, next one:
The binder AB-63.10 (antibody, V domains shown) VH: QVQLVQSGAEVKKPGASVKVSCKASGYTETDYNLHWVRQAPGQGLEWIGFIYPSNGITGYAQKFQGRVTMTVDTSTSTVYMELSSLRSEDTAVYYCARSDVDYFDYWGQGTLVTVSS VL: DIVLTQSPDSLAVSLGERATINCRASQDVSTSTYSYMHWYQQKPGQPPKLLIKYASNLESGVPDRFSGSGSGTDFTLTISSLQAEDVAVYYCQHSWELPLTFGQGTKLEIK showed Receptor downregulation (EC50) equal to 0.0418
